src = ChEMBL document CHEMBL2062474

Can you tell me viability at 24 h, 3.1 µM for the items I'm about to list?
test: Cytotoxicity against human U937 cells assessed as cell growth at 3.1 uM after 24 hrs by alamar blue assay
Type: cell-based, U-937
condition.parameters: read-out: Activity

// viability at 24 h, 3.1 µM lookup, compound = COc1cc2c3c4c1Oc1cc5c(cc1O4)[C@@H](Cc1ccc(O)c(c1)Oc1ccc(cc1)C[C@@H]3N(C)CC2)N(C)CC5 , result: 108%

// viability at 24 h, 3.1 µM lookup, compound = COc1cc2c3c(O)c1OCc1ccc(cc1)C[C@@H]1c4c(cc(OC)c(OC)c4Oc4ccc(cc4)CC3=NCC2)CCN1C [CISSAMPAREINE] , result: 78%

// viability at 24 h, 3.1 µM lookup, compound = COc1ccc(C[C@H]2c3cc(OC)c(OC)c(OC)c3CC[N+]2(C)C)cc1Oc1ccc(C[C@H]2c3cc4c(c(OC)c3CC[N+]2(C)C)OCO4)cc1.[I-].[I-] [THALISTYLINE DIMETHOIODIDE] , result: 116%

// viability at 24 h, 3.1 µM lookup, compound = COc1ccc2cc1Oc1ccc(cc1)C[C@@H]1c3c(cc(OC)c4c3Oc3cc5c(cc3O4)CCN[C@@H]5C2)CCN1C , result: 82%

----------
test: Cytotoxicity against human U937 cells assessed as cell growth at 0.78 uM after 24 hrs by alamar blue assay
Format: cell-based, U-937
condition.parameters: read-out: Activity
property.label: viability at 24 h, 0.78 µM (%)
Supply the numeric figure in %, leaving out any unit text.

// viability at 24 h, 0.78 µM lookup, compound = COc1ccc(C[C@H]2c3cc(OC)c(OC)c(OC)c3CC[N+]2(C)C)cc1Oc1ccc(C[C@H]2c3cc(OC)c4c(c3CCN2C)OCO4)cc1.[Cl-] [THALISTYLINE] , result: 133

----------
test: Cytotoxicity against human U937 cells assessed as cell growth at 12 uM after 24 hrs by alamar blue assay
Assay type: cell-based, U-937
condition.parameters: read-out: Activity
Can you tell me viability at 24 h, 12 µM for the items I'm about to list?
Supply the numeric figure in %, leaving out any unit text.

// viability at 24 h, 12 µM lookup, compound = COc1ccc2cc1Oc1ccc(cc1)C[C@H]1c3c(cc4c(c3Oc3cc5c(cc3OC)CCN(C)[C@@H]5C2)OCO4)CCN1C , result: 87

// viability at 24 h, 12 µM lookup, compound = COc1ccc2cc1Oc1ccc(cc1)C[C@@H]1c3cc(c(OC)cc3CCN1C)Oc1c(OC)c(OC)cc3c1[C@@H](C2)N(C)CC3 , result: 104

// viability at 24 h, 12 µM lookup, compound = COc1ccc2cc1-c1cc(ccc1O)C[C@H]1c3cc4c(cc3CCN1C)Oc1c(OC)cc3c(c1O4)[C@H](C2)N(C)CC3 , result: 63

// viability at 24 h, 12 µM lookup, compound = COc1cc2c3cc1Oc1c(O)c(OC)cc4c1[C@@H](Cc1ccc(O)c(c1)Oc1ccc(cc1)C[C@@H]3N(C)CC2)N(C)CC4 , result: 89

----------
Can you tell me viability at 24 h, 50 µM for the items I'm about to list?
test: Cytotoxicity against human U937 cells assessed as cell growth at 50 uM after 24 hrs by alamar blue assay
Format: cell-based, U-937
condition.parameters: read-out: Activity
Supply the numeric figure in %, leaving out any unit text.

// viability at 24 h, 50 µM lookup, compound = COc1cc2c3cc1Oc1c(OC)c(OC)cc4c1[C@H](Cc1ccc(O)c(c1)-c1cc(ccc1OC)C[C@H]3N(C)CC2)N(C)CC4 [FUNIFERINE] , result: 94

// viability at 24 h, 50 µM lookup, compound = COc1cc2c3cc1Oc1c(OC)c(OC)cc4c1[C@@H](Cc1ccc(O)c(c1)Oc1ccc(cc1)C[C@@H]3N(C)CC2)N(C)CC4 [BERBAMINE] , result: 70

// viability at 24 h, 50 µM lookup, compound = COC1=CC2=C3[C@H](Cc4cc5c(c(c4)Oc4ccc(cc4)C[C@H]4c6cc7c(cc6CCN4C)OC[C@@]3(O7)C1=O)OCO5)N(C)CC2 [REPANDULINE] , result: 67
